system: COLO 205 colon; experiment: NCI-60 one-dose screen, 48 h; conditions: 10 µM unless noted
This is part of a sample that, as a whole, favours compounds with a hit. Of some 83,000 tested, about 20% had one in any assay. Activity calls are given as the source filed them. The calls were made as follows: active = growth percent below 10; inactive = the rest.
Write down one outcome, taken from yes (1) = active, no (0) = inactive

Prompt line: Entry Cc1cc(=O)[nH]c(O)c1C#N : call = ?
Response line: no (0)

Prompt line: Consider next the compound O=C(N/N=C\c1ccc(F)cc1)c1ccc2nc(-c3ccc(Br)cc3)[nH]c2c1 in the same way.
Response line: no (0)

Prompt line: Similarly, O=C(CSc1nnc(-c2cccs2)n1-c1ccccc1)Nc1ccccc1F ?
Response line: no (0)

Prompt line: Repeat with COc1ccc(/C=N/NC(=O)CSc2nc(-c3cnccn3)cc(-c3cccs3)c2C#N)cc1OC
Response line: no (0)

Prompt line: Would you kindly repeat that for Cc1c(C(=O)/C=C/c2ccc(Cl)cc2)nnn1-c1ccc2oc(=O)ccc2c1 ?
Response line: no (0)

Prompt line: Consider next the compound COc1ccc(N2CCN(C3=C(Cl)C(=O)c4ncccc4C3=O)CC2)cc1 in the same way.
Response line: no (0)

Prompt line: Repeat for the following compound: COc1ccc(-c2cc(-c3ccc(N4CCOCC4)cc3)n3c(n2)nc2ccccc23)cc1OC
Response line: no (0)

Prompt line: Next entry: COC(=O)c1cccc(NC2=CC(=O)C(C)=C(C)C2=O)c1
Response line: no (0)

Prompt line: Also check C(=N\Nc1nc(N/N=C/c2ccc3c(c2)OCO3)nc(N2CCCCC2)n1)/c1ccc2c(c1)OCO2
Response line: no (0)

Prompt line: Ok, now CCOC(=O)c1cnc2c(-c3ccc(Cl)c(Cl)c3)cnn2c1
Response line: no (0)

Prompt line: Similarly, CSc1ccc(C(=NNS(=O)(=O)c2ccc(C)cc2)c2ccc(Cl)cc2)cc1 ?
Response line: no (0)

Prompt line: Field entry: CN1CCN(c2ccc(Nc3nc(NCCCNS(=O)(=O)c4ccccc4)c4sccc4n3)cc2)CC1
Response line: no (0)

Prompt line: Try CCOC(=O)c1c(NCC(=O)Nc2cccc([N+](=O)[O-])c2)sc(C(C)=O)c1C next.
Response line: yes (1)

Prompt line: Queued: CS(=O)(=O)c1ccc(/C(=N/N=C(N)N)c2ccc(F)cc2)cc1
Response line: no (0)

Prompt line: // query: CN1CCN(Cc2ccc(NC(=O)c3cncc(C#Cc4cnc5ccc(OCC(F)F)nn45)c3)cc2C(F)(F)F)CC1
Response line: yes (1)

Prompt line: Moving on to NS(=O)(=O)c1ccc(CCn2c(-c3ccc(C(=O)O)cc3)nc(-c3ccccc3)c2-c2ccccc2)cc1
Response line: no (0)

Prompt line: One more compound: O=C(NCCNc1cc(-c2cn(-c3ccccc3)nc2-c2cccc(O)c2)ccn1)Nc1cc(C(F)(F)F)cc(C(F)(F)F)c1
Response line: no (0)

Prompt line: Input CCCCCN1C(=O)/C(=c2\sc3n(c2=O)C2C(NN=3)N(CC)C(=O)N2CC)c2cccc(C)c21 (stereo not drawn)
Response line: no (0)

Prompt line: Now this one: O=C(CCCCCCN1CC(=O)N2[C@@H](c3cccs3)c3[nH]c4ccccc4c3C[C@H]2C1=O)NO
Response line: no (0)

Prompt line: Same thing, different compound: CC(C)(C)c1cc(NC(=O)Nc2ccc(-c3cn4c5c(sc4n3)CCc3c[nH]cc3-5)cc2)no1
Response line: yes (1)

Prompt line: Same lookup for Cc1cc(NS(=O)(=O)c2ccc(NC(=O)CSc3nc4ccccc4c(=O)n3-c3ccccc3)cc2)no1 , please.
Response line: no (0)

Prompt line: Likewise for O=C(Nc1ccc(N=Cc2c(O)[nH]c3ccccc23)cc1)Nc1ccc(S(=O)(=O)Nc2ncccn2)cc1 ?
Response line: no (0)

Prompt line: Now consider CC(Nc1c(C#N)cnc2ccc(-c3cncc(-c4n[nH]c(=O)o4)c3)cc12)c1ccccc1 (stereo not drawn) .
Response line: yes (1)

Every entry's value here was drawn from PubChem BioAssay (NCI).
